assay: FBMN analysis of short peptides in small intestine contents and serum after oral DHG; settings: small intestine contents, 120 min after oral DHG, C57 mice; FBMN feature intensity, peptides smaller than 690 Da
Peptide text beside a SMILES is read from it.
ASSAY_ENDPOINT: Peptide signal (feature intensity) in the small intestine, 120 min
One number for each entry.

Peptide signal (feature intensity) in the small intestine, 120 min for CC(C)[C@H](N)C(=O)N[C@@H](Cc1c[nH]c2ccccc12)C(=O)O [Val-Trp] (H-Val-Trp-OH) ?
6.61E+05

Peptide signal (feature intensity) in the small intestine, 120 min for CC(C)C[C@H](N)C(=O)N[C@H](C(=O)N[C@@H](CCCCN)C(=O)O)C(C)C [Leu-Val-Lys] (H-Leu-Val-Lys-OH) ?
8.97E+05

Peptide signal (feature intensity) in the small intestine, 120 min for CC(C)[C@H](NC(=O)CN)C(=O)O [Gly-Val] (H-Gly-Val-OH) ?
0.00E+00

// input: 2 compounds below; output: Peptide signal (feature intensity) in the small intestine, 120 min for each
1. CCCC[C@H](NC(=O)[C@H](C)N)C(=O)O [L-Alanyl-L-norleucine] (HELM PEPTIDE1{A.[Nle]}$$$$V2.0)
2. NCC(=O)N[C@@H](Cc1ccc(O)cc1)C(=O)O [Gly-Tyr] (H-Gly-Tyr-OH)

2.05E+05
0.00E+00
